Values were extracted from paper PMC9352680.

- assayedTarget: T1, PUF4 RNA-binding domain (Saccharomyces cerevisiae, UniProt P25339 537-888)
- T1 sequence: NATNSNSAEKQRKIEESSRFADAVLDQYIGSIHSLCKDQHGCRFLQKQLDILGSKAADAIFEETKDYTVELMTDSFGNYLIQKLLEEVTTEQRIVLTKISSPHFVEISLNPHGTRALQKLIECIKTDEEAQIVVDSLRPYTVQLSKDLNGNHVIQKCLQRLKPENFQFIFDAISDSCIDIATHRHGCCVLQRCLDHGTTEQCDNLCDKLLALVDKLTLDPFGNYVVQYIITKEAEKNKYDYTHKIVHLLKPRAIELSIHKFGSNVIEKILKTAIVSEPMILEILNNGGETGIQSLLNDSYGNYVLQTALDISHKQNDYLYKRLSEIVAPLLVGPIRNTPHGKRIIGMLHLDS
- protocolText: Mg; RNA-MaP; 20 mM Na-HEPES pH 7.4, 30 mM KOAc, 0.75 mM MgCl2, 0.1% Tween-20, 5% glycerol, 0.1 mg/mL BSA, 2 mM DTT; 25 C; 0.0125-409.6 nM protein
- protocolConditions: tags: N-His6-TEV cleaved; C-SNAP kept, Cy3B-labelled; label: tethered on chip by stalled RNA polymerase
So basically: is Kd under 10 nM? Then label 1. Not under? Then label 0.

Say whether its Kd is strictly beneath 10 nM. Entry: Ie_S2_P4E.1_K4.1_C4.1_H4.1_[+2CCCT]_A4.1_F4.1_T4.1 (ssRNA) RNA: UUUGAUUAAUAUGAUAUCGUUCUUUCUUGCCCUUAUAUUAUUCUUUCUCGAUAUCAUAUUAAUCUUU
label 0

Say whether its Kd is strictly beneath 10 nM. Entry: Ie_S4_P5E.1_K5.1_C5.1_H5.1_A5.1_[+5CC]_F5.1_T5.1 (ssRNA) RNA: UUUGACAACUGAUCGUUCUUUCUUGUAUCCUAUUAUUCUUUCUCGAUCAGUUGUCUUU
label 1

Say whether its Kd is strictly beneath 10 nM. Entry: UCUCUUCCUGUAUUAUUAUGUCUCUU (ssRNA) [Id_ii_S1_P5E.2_K5.1_C5.2_[T-1C]_H5.1_A5.1_F5.1_T5.2_[A12G]]
label 1

Say whether its Kd is strictly beneath 10 nM. Entry: UCUCUUUGUACAGUUUCUCUU (ssRNA) [Ic_S1_P4E.1_K4.1_C4.1_H4.1_A4.1_[T5C]_[T7G]_F4.1_[A9T]_T4.1]
label 0

Say whether its Kd is strictly beneath 10 nM. Entry: Ib_S2_P5E.1_K5.1_C5.1_H5.1_[A4G]_A5.1_[A7T]_F5.1_T5.1 (ssRNA) RNA: UUUGAUUAAUAUGAUAUCGUUCUUUCUUGUGUUUUUAUUCUUUCUCGAUAUCAUAUUAAUCUUU
label 0

Say whether its Kd is strictly beneath 10 nM. Entry: Id_ii_S2_P5E.3_K5.2_C5.2_[T-1A]_H5.2_A5.1_F5.1_T5.2_[T11A]_[A12G] (ssRNA) RNA: UUUGAUUAAUAUGAUAUCGUUCUUUCUCAUAUAUUAUUAAGUUCUUUCUCGAUAUCAUAUUAAUCUUU
label 0

Say whether its Kd is strictly beneath 10 nM. Entry: UCUCUUGUACACUAUAACUCUCUU (ssRNA) [Id_ii_S1_P3E.4_K3.3_C3.2_[C-2G]_H3.3_A3.1_F3.1_T3.2_[T9A]_[A10C]]
label 1

Say whether its Kd is strictly beneath 10 nM. Entry: UCUCUUUUUUGUAAAAAUAUCUCUU (ssRNA) [Id_iii_S1_P3E.9_K3.5_C3.3_[C-2T]_H3.1_A3.2_F3.2_T3.2]
label 0

Say whether its Kd is strictly beneath 10 nM. Entry: Ib_S2_P5E.1_K5.1_C5.1_H5.1_[G2C]_A5.1_F5.1_[A10T]_T5.1 (ssRNA) RNA: UUUGAUUAAUAUGAUAUCGUUCUUUCUUCUAUUAUUUUUCUUUCUCGAUAUCAUAUUAAUCUUU
label 0

Say whether its Kd is strictly beneath 10 nM. Entry: Ic_S4_P4E.1_K4.1_C4.1_H4.1_A4.1_[T5A]_[A6T]_[T7A]_F4.1_[T8C]_[A9T]_T4.1 (ssRNA) RNA: UUUGACAACUGAUCGUUCUUUCUUGUAAUACUUUCUUUCUCGAUCAGUUGUCUUU
label 0

Say whether its Kd is strictly beneath 10 nM. Entry: UCUCUUUAUAUAUUGUCUCUU (ssRNA) [Ib_S1_P4E.1_K4.1_C4.1_H4.1_[G2A]_A4.1_F4.1_[A9G]_T4.1]
label 0

Say whether its Kd is strictly beneath 10 nM. Entry: UCUCUUAGUAUAUAUAGCUCUCUU (ssRNA) [Id_ii_S1_P3E.3_K3.2_C3.2_[C-2A]_[T-1G]_H3.2_A3.1_F3.1_T3.2_[T9G]_[A10C]]
label 0

Say whether its Kd is strictly beneath 10 nM. Entry: Ib_S4_P5E.1_K5.1_C5.1_H5.1_[T1C]_[G2T]_A5.1_F5.1_T5.1 (ssRNA) RNA: UUUGACAACUGAUCGUUCUUUCUCUUAUUAUUAUUCUUUCUCGAUCAGUUGUCUUU
label 0

Say whether its Kd is strictly beneath 10 nM. Entry: UCUCUUUGUACCCCGGUCUCUU (ssRNA) [Ic_S1_P5E.1_K5.1_C5.1_H5.1_A5.1_[T5C]_[T6C]_[A7C]_F5.1_[T8C]_[T9G]_[A10G]_T5.1]
label 0

Say whether its Kd is strictly beneath 10 nM. Entry: Id_ii_S2_P5E.3_K5.2_C5.2_[C-2G]_[T-1C]_H5.2_A5.1_F5.1_T5.2_[T11C] (ssRNA) RNA: UUUGAUUAAUAUGAUAUCGUUCUUUCUGCUAUAUUAUUACAUUCUUUCUCGAUAUCAUAUUAAUCUUU
label 0

Say whether its Kd is strictly beneath 10 nM. Entry: UCUCUUUGUCUUAUUAUUAUCUCUU (ssRNA) [Ie_S1_P5E.1_K5.1_C5.1_H5.1_[+3CTT]_A5.1_F5.1_T5.1]
label 0

Say whether its Kd is strictly beneath 10 nM. Entry: Ie_S2_P5E.1_K5.1_C5.1_H5.1_A5.1_[+6TTC]_F5.1_T5.1 (ssRNA) RNA: UUUGAUUAAUAUGAUAUCGUUCUUUCUUGUAUUUUCAUUAUUCUUUCUCGAUAUCAUAUUAAUCUUU
label 0

Say whether its Kd is strictly beneath 10 nM. Entry: UCUCUUUGUUCUAUUAUCUCUU (ssRNA) [Ib_S1_P5E.1_K5.1_C5.1_H5.1_[A4T]_A5.1_[T5C]_F5.1_T5.1]
label 0

Say whether its Kd is strictly beneath 10 nM. Entry: UCUCUUUUUGUAUAUUACUUCUCUU (ssRNA) [Id_ii_S1_P4E.2_K4.1_C4.2_[C-2T]_H4.1_A4.1_F4.1_T4.2_[G10C]]
label 1
